# maps each entry to its Ki
Molecular target: T1, human leukocyte cathepsin G (hCG) (human), P08311
T1 chain: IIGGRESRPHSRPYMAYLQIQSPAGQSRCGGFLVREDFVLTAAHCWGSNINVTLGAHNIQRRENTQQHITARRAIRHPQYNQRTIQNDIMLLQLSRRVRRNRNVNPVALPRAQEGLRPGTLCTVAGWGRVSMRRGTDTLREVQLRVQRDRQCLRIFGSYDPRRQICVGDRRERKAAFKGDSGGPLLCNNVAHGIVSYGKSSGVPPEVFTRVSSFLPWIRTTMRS
Test: other enzyme inhibition
Details: modification not given
# unit: µM | format: bare number

// solved cases for Ki follow
binder | result.units | Ki
ATKRQDNEILIFWSKDIGYSFTVGGSEIL [CRP55-83 (peptide 17)] | µM | 5.5
EILIFWSKDIGYSFT [CRP62-76 (peptide 6)] | µM | 0.25
KRQDNEILIFWSKDI [CRP57-71 (peptide 5)] | µM | 180
ILIFWSKDIGYSFT [CRP63-76 (peptide 11)] | µM | 15
EILIFWSKAIGYSFT [peptide 22] | µM | 5.5

Query Ki for EILIFWSKDIGY [CRP62-73 (peptide 13)]
4

Query Ki for ILFEVPEVTVAPVHI [CRP82-96 (peptide 10)]
150

Query Ki for DILIFWSKDIGYSFT [peptide 18]
2.6

Query Ki for EILIFWSKDI [CRP62-71 (peptide 14)]
6

Query Ki for EILIFWSKEIGYSFT [peptide 23]
0.85

Query Ki for EILIFWPKDIGYSFT [peptide 19]
30
